Target: Muscarinic acetylcholine receptor M3 (Homo sapiens)
Sequence (P20309 whole entry): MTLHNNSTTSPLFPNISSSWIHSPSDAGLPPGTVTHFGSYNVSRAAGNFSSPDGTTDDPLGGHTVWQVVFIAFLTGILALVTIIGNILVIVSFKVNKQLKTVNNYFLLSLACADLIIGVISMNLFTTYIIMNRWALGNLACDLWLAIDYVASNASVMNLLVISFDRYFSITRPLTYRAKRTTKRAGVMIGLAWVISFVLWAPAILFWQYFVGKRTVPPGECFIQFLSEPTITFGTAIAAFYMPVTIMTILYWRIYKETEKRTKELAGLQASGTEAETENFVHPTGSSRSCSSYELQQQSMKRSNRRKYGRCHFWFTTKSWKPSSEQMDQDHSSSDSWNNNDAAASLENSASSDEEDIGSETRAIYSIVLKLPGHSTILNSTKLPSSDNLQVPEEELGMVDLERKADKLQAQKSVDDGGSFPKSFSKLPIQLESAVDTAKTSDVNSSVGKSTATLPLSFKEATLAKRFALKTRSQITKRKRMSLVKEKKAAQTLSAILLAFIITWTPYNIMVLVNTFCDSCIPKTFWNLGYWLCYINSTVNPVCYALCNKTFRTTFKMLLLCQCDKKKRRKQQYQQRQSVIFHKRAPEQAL

>  <mol>
CN(C)CC[C@@H](Oc1cccc2c1OCO2)c1ccc(F)cc1.O=C(O)C(=O)O

>  <experimental_target>
Muscarinic acetylcholine receptor M3 (Homo sapiens)

>  <Ki>
> 1000 nM

$$$$

----------
Test: AUC(0 to t) in CD1 mouse at 15 mg/kg, po measured upto 24 hrs by LC-MS analysis
Type: ADME, organism-based
Conditions: in vivo
measured_attribute: AUC(0-t) at 24 h (ng·h/mL)

>  <mol>
CN(C)CC[C@@H](Oc1cccc2c1OCO2)c1ccc(F)cc1.O=C(O)C(=O)O

>  <unit_info>
ng·h/mL

>  <recorded_value>
462

$$$$

----------
Biological target: Voltage-gated inwardly rectifying potassium channel KCNH2 (Homo sapiens, UniProt Q12809)
Sequence (Q12809 whole entry): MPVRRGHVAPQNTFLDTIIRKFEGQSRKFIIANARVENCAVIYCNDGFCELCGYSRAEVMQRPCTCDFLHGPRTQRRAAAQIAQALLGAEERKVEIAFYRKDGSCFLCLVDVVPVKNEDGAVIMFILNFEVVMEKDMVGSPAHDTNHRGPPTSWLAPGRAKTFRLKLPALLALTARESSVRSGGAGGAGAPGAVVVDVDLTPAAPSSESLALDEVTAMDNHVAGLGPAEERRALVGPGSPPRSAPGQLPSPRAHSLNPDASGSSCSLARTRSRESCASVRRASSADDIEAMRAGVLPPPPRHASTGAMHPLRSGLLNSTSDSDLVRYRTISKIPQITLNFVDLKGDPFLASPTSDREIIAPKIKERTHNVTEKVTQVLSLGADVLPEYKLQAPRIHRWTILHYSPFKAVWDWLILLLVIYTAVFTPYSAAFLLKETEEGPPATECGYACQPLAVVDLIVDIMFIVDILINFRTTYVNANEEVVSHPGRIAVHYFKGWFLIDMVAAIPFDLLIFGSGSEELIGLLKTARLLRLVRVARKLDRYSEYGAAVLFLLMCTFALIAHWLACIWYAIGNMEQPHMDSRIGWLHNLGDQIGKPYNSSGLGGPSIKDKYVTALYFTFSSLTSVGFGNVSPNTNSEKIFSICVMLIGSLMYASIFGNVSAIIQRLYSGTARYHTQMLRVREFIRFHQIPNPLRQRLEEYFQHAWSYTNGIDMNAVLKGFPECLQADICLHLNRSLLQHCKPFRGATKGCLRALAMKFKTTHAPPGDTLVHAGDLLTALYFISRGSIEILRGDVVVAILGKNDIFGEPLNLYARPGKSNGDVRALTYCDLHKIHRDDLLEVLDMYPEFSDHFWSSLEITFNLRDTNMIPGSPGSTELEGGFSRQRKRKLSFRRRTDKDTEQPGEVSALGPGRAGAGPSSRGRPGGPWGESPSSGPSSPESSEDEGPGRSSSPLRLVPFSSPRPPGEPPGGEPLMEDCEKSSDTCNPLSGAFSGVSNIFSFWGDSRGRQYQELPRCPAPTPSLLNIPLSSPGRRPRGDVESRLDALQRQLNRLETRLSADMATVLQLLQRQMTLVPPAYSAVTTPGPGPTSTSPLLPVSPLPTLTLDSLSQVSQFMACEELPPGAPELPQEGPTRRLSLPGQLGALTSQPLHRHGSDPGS
Assay: Inhibition of human ERG expressed in HEK293 cells by whole-cell patch clamp method
measured_attribute: IC50

>  <molecule>
CN(C)CC[C@@H](Oc1cccc2c1OCO2)c1ccc(F)cc1.O=C(O)C(=O)O

>  <measured_attribute>
IC50

>  <recorded_value>
1230 nM

$$$$
>  <molecule>
CN(C)CCC(Oc1cccc2c1OCO2)c1ccc(F)cc1 (stereo unspecified)

>  <measured_attribute>
IC50

>  <recorded_value>
1110 nM

$$$$
>  <molecule>
CN(C)CCC(Oc1cccc2c1OCO2)c1ccc2c(c1)OCO2 (stereo unspecified)

>  <measured_attribute>
IC50

>  <recorded_value>
371 nM

$$$$
>  <molecule>
CN(C)CCC(Oc1cccc2c1OCO2)c1cccc(F)c1 (stereo unspecified)

>  <measured_attribute>
IC50

>  <recorded_value>
940 nM

$$$$
>  <molecule>
CN(C)CC[C@H](Oc1cccc2c1OCO2)c1ccc(F)cc1

>  <measured_attribute>
IC50

>  <recorded_value>
907 nM

$$$$
>  <molecule>
CNCCC(Oc1cccc2c1OCO2)c1ccccc1 (stereo unspecified)

>  <measured_attribute>
IC50

>  <recorded_value>
818 nM

$$$$

----------
Biological target: 5-hydroxytryptamine receptor 2A (Rattus norvegicus)
Sequence (P14842 whole entry): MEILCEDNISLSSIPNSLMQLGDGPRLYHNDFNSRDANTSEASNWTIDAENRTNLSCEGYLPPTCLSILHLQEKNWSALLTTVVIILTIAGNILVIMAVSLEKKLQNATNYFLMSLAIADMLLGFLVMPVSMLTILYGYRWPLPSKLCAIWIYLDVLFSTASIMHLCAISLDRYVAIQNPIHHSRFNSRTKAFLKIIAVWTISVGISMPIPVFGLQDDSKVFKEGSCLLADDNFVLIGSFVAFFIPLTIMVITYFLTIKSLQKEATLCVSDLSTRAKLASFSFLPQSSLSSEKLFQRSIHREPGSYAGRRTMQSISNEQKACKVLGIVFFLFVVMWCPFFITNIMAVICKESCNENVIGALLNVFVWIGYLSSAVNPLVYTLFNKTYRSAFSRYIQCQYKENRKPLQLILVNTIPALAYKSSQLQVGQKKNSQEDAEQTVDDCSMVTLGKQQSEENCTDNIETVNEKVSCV
Listing of entries alongside the reported Ki.

>  <compound>
CN(C)CC[C@@H](Oc1cccc2c1OCO2)c1ccc(F)cc1.O=C(O)C(=O)O

>  <experimental_target>
5-hydroxytryptamine receptor 2A (Rattus norvegicus)

>  <Ki>
26.4 nM

$$$$
>  <compound>
CN(C)CCC(Oc1cccc2c1OCO2)c1ccc(F)cc1 (stereo not given)

>  <experimental_target>
5-hydroxytryptamine receptor 2A (Rattus norvegicus)

>  <Ki>
35.3 nM

$$$$
>  <compound>
CNCC[C@H](Oc1cccc2ccccc12)c1cccs1

>  <experimental_target>
5-hydroxytryptamine receptor 2A (Rattus norvegicus)

>  <Ki>
1240 nM

$$$$
>  <compound>
CNCCC(Oc1cccc2c1OCO2)c1ccccc1 (stereo not given)

>  <experimental_target>
5-hydroxytryptamine receptor 2A (Rattus norvegicus)

>  <Ki>
156 nM

$$$$
>  <compound>
CN(C)CCC(Oc1cccc2c1OCO2)c1ccc2c(c1)OCO2 (stereo not given)

>  <experimental_target>
5-hydroxytryptamine receptor 2A (Rattus norvegicus)

>  <Ki>
55.1 nM

$$$$

----------
Target: 5-hydroxytryptamine receptor 6 (Homo sapiens)
Sequence (P50406 whole entry): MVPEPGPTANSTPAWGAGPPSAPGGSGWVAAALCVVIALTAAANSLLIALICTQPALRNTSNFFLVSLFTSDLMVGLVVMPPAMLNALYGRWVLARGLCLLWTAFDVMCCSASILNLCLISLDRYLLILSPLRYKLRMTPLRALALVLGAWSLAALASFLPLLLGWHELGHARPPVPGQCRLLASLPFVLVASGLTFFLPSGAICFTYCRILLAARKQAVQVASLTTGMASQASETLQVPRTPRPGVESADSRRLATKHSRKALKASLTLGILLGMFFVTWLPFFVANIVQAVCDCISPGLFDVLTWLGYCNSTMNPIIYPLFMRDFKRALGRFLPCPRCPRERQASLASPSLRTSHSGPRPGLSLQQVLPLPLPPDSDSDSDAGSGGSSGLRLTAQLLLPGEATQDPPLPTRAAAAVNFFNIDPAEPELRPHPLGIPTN

>  <mol>
CN(C)CC[C@@H](Oc1cccc2c1OCO2)c1ccc(F)cc1.O=C(O)C(=O)O

>  <Ki>
> 1 µM

$$$$

----------
Tested on: histamine H1 receptor
Experiment: Displacement of [3H]-pyrilamine from H1 receptor in guinea pig cerebellum membrane incubated for 60 mins by liquid scintillation counting method
Assay type: toxicity, cell membranes, Cavia porcellus
Settings: probe [3H]-pyrilamine

>  <molecule>
CN(C)CCC(Oc1cccc2c1OCO2)c1ccc2c(c1)OCO2 (configuration not stated)

>  <unit_info>
nM

>  <Ki at 60 min>
426

$$$$
>  <molecule>
CN(C)CCC(Oc1cccc2c1OCO2)c1cccc(F)c1 (configuration not stated)

>  <unit_info>
nM

>  <Ki at 60 min>
549

$$$$
>  <molecule>
CN(C)CCC(Oc1cccc2c1OCO2)c1ccc(F)cc1 (configuration not stated)

>  <unit_info>
nM

>  <Ki at 60 min>
937

$$$$
>  <molecule>
CNCCC(Oc1cccc2c1OCO2)c1ccccc1 (configuration not stated)

>  <unit_info>
nM

>  <Ki at 60 min>
669

$$$$
>  <molecule>
CN(C)CC[C@H](Oc1cccc2c1OCO2)c1ccc(F)cc1

>  <unit_info>
nM

>  <Ki at 60 min>
823

$$$$
>  <molecule>
CN(C)CC[C@@H](Oc1cccc2c1OCO2)c1ccc(F)cc1.O=C(O)C(=O)O

>  <unit_info>
nM

>  <Ki at 60 min>
1000

$$$$
>  <molecule>
CNCC[C@H](Oc1cccc2ccccc12)c1cccs1 [DULOXETINE]

>  <unit_info>
nM

>  <Ki at 60 min>
1270

$$$$
